The values you see were collected from PubChem BioAssay.

Would you kindly list composite z-score for each of these compounds?
tested on: glycogen synthase kinase-3 (GSK3A per assay name; protocol says GSK3B); assay: GSK3 binders on small-molecule microarrays, primary screen, biochemical, small-molecule microarray, 635 nm fluorescence, GSK3A (AID 1103); settings: small-molecule microarray binding, fluorescence 635 nm; higher = more signal; note: the record names both GSK3A and GSK3B
Could you respond with only the numeric value?

IN: State, for glycogen synthase kinase-3 (GSK3A per assay name; protocol says GSK3B), measured composite z-score of the compound listed here: O=C1NC(=O)C2C1C=CC(C(O)c1ccccc1)N2Nc1ccc(Cl)cc1Cl (centres undefined)
OUT: 1.27

IN: State, for glycogen synthase kinase-3 (GSK3A per assay name; protocol says GSK3B), measured composite z-score of the compound listed here: C[C@@]1([C@@H](NC(=O)c2ccccc2)c2ccc(-c3ccccc3)cc2)C[C@H]1C1CCCCC1
OUT: -0.82

IN: State, for glycogen synthase kinase-3 (GSK3A per assay name; protocol says GSK3B), measured composite z-score of the compound listed here: COc1cc(CO)cc(I)c1O[C@H]1C=C(C(=O)NCCO)C[C@@H](N(CCN2CCOCC2)C(=O)C2CCOC2)[C@@H]1O (some centres undefined)
OUT: 0.437

IN: State, for glycogen synthase kinase-3 (GSK3A per assay name; protocol says GSK3B), measured composite z-score of the compound listed here: COC(=O)[C@@]1(Cc2ccc(F)cc2)[C@H]2c3cc(C(=O)N(C)C)n(Cc4nc5ccccc5[nH]4)c3C[C@H]2CN1C(=O)c1ccccc1
OUT: -0.136

* * *

Would you kindly list z-score for each of these molecules?
target: NADPH oxidase 2 (Homo sapiens); test: NOX2-dependent H2O2 signal modulators, primary screen, NOX inhibitor project, cell-based, HEK293-NOX2, PMA-stimulated, Amplex Red fluorescence (AID 1159); conditions: 45 min, higher = more signal, called active from +8 up or from −8 down; note: test concentration not given here
Could you respond with only the numeric value?

IN: State, for NADPH oxidase 2 (Homo sapiens), measured z-score of the molecule listed here: O=C(C1N=C(c2ccc(OCCCO)cc2)N(c2ccccc2)O1)N1CCOCC1 (stereo unspecified)
OUT: -3.16

IN: State, for NADPH oxidase 2 (Homo sapiens), measured z-score of the molecule listed here: C=CCOC(=O)[C@H]1[C@@H]2C(=O)O[C@@H](c3ccccc3)[C@@H](c3ccccc3)N2[C@@H](c2ccc(OCCOC(=O)[C@@H]3C[C@@H]4C(=O)N5CCC[C@H]5C(=O)N4[C@@H]3c3cccc(OCCO)c3)cc2)[C@]12C(=O)Nc1ccccc12
OUT: 2.26

IN: State, for NADPH oxidase 2 (Homo sapiens), measured z-score of the molecule listed here: CCOC(=O)[C@H]1C/C=C/C[C@H](C(=O)OCC)C(=O)O[C@H]2[C@@H](OC)O[C@H](CO)[C@@H](OC(=O)Nc3cccc(F)c3)[C@@H]2OC1=O
OUT: -2.12

IN: State, for NADPH oxidase 2 (Homo sapiens), measured z-score of the molecule listed here: C#CCN(Cc1ccccc1Br)C(/C=C/c1ccccc1)CO (stereo unspecified)
OUT: 0.28

IN: State, for NADPH oxidase 2 (Homo sapiens), measured z-score of the molecule listed here: CCCCCN1CC=CC23O[C@@H]4/C=C\CCCOC(=O)C4[C@H]2C(=O)N(CCCO)[C@@H]3C1=O (stereo partly specified)
OUT: 1.46

IN: State, for NADPH oxidase 2 (Homo sapiens), measured z-score of the molecule listed here: O=C1O[C@H](c2ccccc2)[C@H](c2ccccc2)N2[C@H]1[C@@H](C(=O)Nc1nc3ccccc3s1)[C@]1(C(=O)Nc3ccc(C#CC4(O)CCCCCC4)cc31)[C@H]2c1ccc(OCCO)cc1
OUT: 0.286

* * *

Would you kindly list z-score for each of these compounds?
test: inhibitors of hydroxyurea-induced Chk1 phosphorylation, primary screen, imaging, HeLa, phospho-Chk1 nuclear intensity (AID 1187); conditions: hydroxyurea-induced phospho-Chk1 immunofluorescence imaging, higher = more signal; note: test concentration not given here
Could you respond with only the numeric value?

IN: Consider the compound O=C1NCC(=O)N2[C@@H]1C[C@@H](C(=O)O)[C@H]2c1cccc(OCCO)c1 and give its recorded z-score.
OUT: -0.367

IN: Consider the compound CCOC(=O)C[C@H]1[C@H](OC(=O)c2ccc(C(=O)c3ccccc3)cc2)[C@@H](NC(=O)c2ccc(-c3ccccc3)cc2)c2cc(OCCCO)ccc2N1C(=O)c1ccccc1 and give its recorded z-score.
OUT: 0.303

IN: Consider the compound CC(C)C[C@H]1NC(=O)[C@@]23C(=O)N[C@@H](Cc4ccccc4)C2[C@H](C)[C@@]2(C)O[C@H]2C3/C=C/C/C=C\CNC(=O)[C@H](Cc2ccccc2)NC1=O (stereo partly drawn) and give its recorded z-score.
OUT: 0.426

* * *

test: small-molecule binders of probe aNOTCH3, primary screen, biochemical, small-molecule microarray, 635/667 nm fluorescence (AID 1120); settings: higher = more signal;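 note: probe is a biotin-tagged antibody raised against NOTCH3 rather than NOTCH3 protein; score merges spot fluorescence near 667 nm with spot signal to noise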
The label depends only on composite z-score: Satisfied if it is at least 0.2, Not satisfied if it is smaller.

IN: Tell me whether composite z-score is at least 0.2 here: COC(=O)[C@@]1(Cc2ccccc2)[C@H]2c3cc(C(=O)N4CCCC4)n(Cc4cccc5ccccc45)c3C[C@H]2CN1C(=O)c1ccccc1
OUT: Satisfied

IN: Tell me whether composite z-score is at least 0.2 here: C=CCOC(=O)[C@H]1[C@@H]2C(=O)O[C@@H](c3ccccc3)[C@@H](c3ccccc3)N2[C@@H](c2ccc(OCCOC(=O)[C@H]3C[C@H]4C(=O)N[C@@H](CC(C)C)C(=O)N4[C@H]3c3ccc(O)cc3)cc2)[C@]12C(=O)Nc1ccc(I)cc12
OUT: Not satisfied

IN: Tell me whether composite z-score is at least 0.2 here: COC(=O)c1c(CC[C@@H](CO)NC(=O)N2CCC[C@H]2Cn2cc(-c3ccccn3)nn2)oc(C(C)=O)c1C(=O)OC
OUT: Not satisfied

IN: Tell me whether composite z-score is at least 0.2 here: CCOC1=C2C(CN(S(=O)(=O)c3ccc(C)cc3)C2c2ccc(C)cc2)C2C(=O)N(c3ccccc3)C(=O)C2C1 (configuration not stated)
OUT: Satisfied

IN: Tell me whether composite z-score is at least 0.2 here: CCCCC=C[C@@H](NC(=O)Oc1cccc(C(F)(F)F)c1)c1ccccc1
OUT: Satisfied

IN: Tell me whether composite z-score is at least 0.2 here: O=C1C2C=CC(C(O)c3ccc(F)cc3)N(Nc3ccccc3F)C2C(=O)N1c1ccccc1 (configuration not stated)
OUT: Satisfied

IN: Tell me whether composite z-score is at least 0.2 here: C[C@]1(C(=O)NC2CC2)c2ccccc2C(=O)N(Cc2cc(C(F)(F)F)cc(C(F)(F)F)c2)[C@H]1c1ccc(CO)cc1
OUT: Satisfied

* * *

biological target: Fibroblast growth factor 2 (Homo sapiens) (UniProt P09038); assay: FGF2 binders on small-molecule microarrays, primary screen, biochemical, small-molecule microarray, 635/667 nm fluorescence (AID 1133); conditions: small-molecule microarray binding, FGF2, fluorescence 635/667; higher = more signal
Sequence (P09038 whole entry, looked up): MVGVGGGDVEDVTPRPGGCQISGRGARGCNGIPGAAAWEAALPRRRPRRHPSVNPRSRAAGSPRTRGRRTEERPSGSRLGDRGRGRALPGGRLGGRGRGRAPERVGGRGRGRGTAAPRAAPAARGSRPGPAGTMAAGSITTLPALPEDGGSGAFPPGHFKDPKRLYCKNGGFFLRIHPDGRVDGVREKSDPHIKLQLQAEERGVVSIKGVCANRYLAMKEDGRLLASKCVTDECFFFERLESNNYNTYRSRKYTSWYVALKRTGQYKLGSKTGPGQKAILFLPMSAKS
property label: composite z-score
Could you respond with only the numeric value?

IN: Consider the compound COCCOC(=O)N1C(=O)[C@@]2(c3cc(C#CCNC(N)=O)ccc31)[C@H](C(=O)NC[C@H](O)c1ccccc1)[C@H]1C(=O)O[C@H](c3ccccc3)[C@H](c3ccccc3)N1[C@@H]2c1ccccc1OCCO and give its recorded composite z-score.
OUT: 0.73

IN: Consider the compound CN1C(=O)C2C=CC(C(O)c3ccccc3)N(Nc3ccccc3)C2C1=O (configuration not stated) and give its recorded composite z-score.
OUT: -1.39

IN: Consider the compound COC(=O)[C@@]1(Cc2ccc(F)cc2)[C@H]2c3cc(C(=O)N(C)C)n(Cc4nc5ccccc5[nH]4)c3C[C@H]2CN1C(=O)c1ccccc1 and give its recorded composite z-score.
OUT: -0.634

IN: Consider the compound CCCC#C[Si](O[C@H](CC)c1cn([C@H](CO)Cc2ccccc2)nn1)(C(C)C)C(C)C and give its recorded composite z-score.
OUT: 0.344

IN: Consider the compound [N-]=[N+]=Nc1ccccc1C[C@]1(C(N)=O)N=C(c2ccc(OCCCO)cc2)O[C@H]1c1ccccc1 and give its recorded composite z-score.
OUT: -0.768

IN: Consider the compound C=CCN1C(=O)[C@@]2(O[C@@H](CCO)[C@H]([Si](C)(C)c3ccc(OC)cc3)[C@H]2C)c2cc(NC(=O)c3ccc(OC)cc3)ccc21 and give its recorded composite z-score.
OUT: 1.2

IN: Consider the compound [N-]=[N+]=NCc1ccccc1C[C@@]1(C(=O)NCC(O)CO)N=C(c2ccc(OCCCO)cc2)O[C@@H]1c1ccccc1N=[N+]=[N-] (some centres not stated) and give its recorded composite z-score.
OUT: 1.58

* * *

assay: HepG2 liver cancer cell viability effects, profiling panel, resazurin fluorescence, 24 h, PK04 Diversity Set (AID 1172); conditions: higher = more signal; note: test concentration not given here
property label: z-score

IN: Consider the compound COc1ccc([Si](C)(C)[C@@H]2[C@@H](CCO)O[C@]3(C(=O)N(Cc4ccc(N5C(=O)COc6ccccc65)cc4)c4ccccc43)[C@H]2C)cc1 and give its recorded z-score.
OUT: -1.59

IN: Consider the compound C#CCN(CC=C(C)C)[C@H](CO)c1ccccc1 and give its recorded z-score.
OUT: 0.0941

IN: Consider the compound COc1ccc(C(=O)Nc2ccc(CN3C(=O)[C@@]4(O[C@@H](CC(=O)N5CCC[C@H]5CO)[C@H]([Si](C)(C)c5ccc(OC)cc5)[C@H]4C)c4ccccc43)cc2)cc1 and give its recorded z-score.
OUT: 0.294

IN: Consider the compound C[C@@H]1ON(c2cccc(C(=O)OC(C)(C)C)c2)[C@H](c2ccc(Br)cc2)[C@H]1C(=O)N1C(=O)OC[C@H]1Cc1ccccc1 and give its recorded z-score.
OUT: 0.0192

IN: Consider the compound COC(=O)C=C(CC(O)c1cccc(Cl)c1)OC (stereo not drawn) and give its recorded z-score.
OUT: -0.0421

IN: Consider the compound COC(=O)[C@@]1(Cc2ccc(OC)cc2)[C@H]2c3cc(C(=O)N(C)C)n(CCN4CNCC4=O)c3C[C@H]2CN1C(=O)c1ccccc1 and give its recorded z-score.
OUT: 0.642

IN: Consider the compound C=C(C)C1C(=C)CN([C@H](CO)c2ccccc2)C1=O (stereo partly drawn) and give its recorded z-score.
OUT: 1.04

IN: Consider the compound [N-]=[N+]=NCc1ccccc1[C@H]1OC(c2ccc(OCCCO)cc2)=N[C@@]1(Cc1ccccc1)C(=O)NCc1ccccc1 and give its recorded z-score.
OUT: 0.294
